Where do these numbers come from? They come from patent US20250051467A1.

Entries and their Ratio of KD of 28H1 to KD of test antibody values follow.
biological target: T1, h-FAP-His (human, UniProt Q12884 26-760); test: SPR, antibody captured by anti-human IgG Fc, h-FAP-His analyte
T1 construct: range 26-760; Bought recombinant protein with a His tag; also called human FAP-His protein; FAP recombinant protein with a His tag
T1 sequence (Q12884 26-760 limits assumed): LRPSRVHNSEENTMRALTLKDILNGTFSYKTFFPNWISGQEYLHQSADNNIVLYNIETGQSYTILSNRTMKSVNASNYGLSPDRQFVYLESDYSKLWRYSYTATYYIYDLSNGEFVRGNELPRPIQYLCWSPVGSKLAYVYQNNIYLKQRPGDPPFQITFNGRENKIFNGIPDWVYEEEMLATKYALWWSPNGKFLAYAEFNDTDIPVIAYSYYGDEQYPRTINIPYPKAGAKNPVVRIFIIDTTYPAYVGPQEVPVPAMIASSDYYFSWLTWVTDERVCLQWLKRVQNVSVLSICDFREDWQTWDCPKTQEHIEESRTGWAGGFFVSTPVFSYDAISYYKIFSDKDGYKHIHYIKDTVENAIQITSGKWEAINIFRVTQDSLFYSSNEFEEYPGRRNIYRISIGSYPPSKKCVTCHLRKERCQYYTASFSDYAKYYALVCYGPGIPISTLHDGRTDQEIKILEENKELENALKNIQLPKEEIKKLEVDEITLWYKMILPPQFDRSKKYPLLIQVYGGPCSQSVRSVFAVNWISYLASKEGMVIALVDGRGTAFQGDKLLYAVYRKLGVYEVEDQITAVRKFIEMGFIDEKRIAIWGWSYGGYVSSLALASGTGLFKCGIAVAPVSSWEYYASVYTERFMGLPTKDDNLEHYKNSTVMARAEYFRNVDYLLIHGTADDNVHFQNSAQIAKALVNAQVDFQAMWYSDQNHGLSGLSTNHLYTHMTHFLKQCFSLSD
The answer should be a number; do not append a unit.

As a guide, the following entries are already answered.
binder | obs value
Ab9 (antibody, human IgG1, kappa, L234A L235A, V domains shown, Fully human, IgG1 / kappa; also called anti-FAP antibody Ab9) VH: QMQLVQSGAEVKKPGASVTVSCRASGYSFADHFIHWVRQAPGQGFQWMGWINPNRGVTHHAQDFQGRVAMTRDMSTDTVYMELTSLRSDDTAVYYCARDESLTARPYYFYGFDVWGQGTLVTVSS VL: DIQMTQSPSSVSASVGDRVTITCRASQGISSWLAWYQQKPGKAPKLLIYAASSLQSGVPSRFSGSGSGTDFTLTISSLQPEDFATYYCQQANSFPPAFGQGTKVEIKR | 4.3
28H1 (antibody, V domains shown, also called control anti-FAP antibody 28H1) VH: EVQLLESGGGLVQPGGSLRLSCAASGFTFSSHAMSWVRQAPGKGLEWVSAIWASGEQYYADSVKGRFTISRDNSKNTLYLQMNSLRAEDTAVYYCAKGWLGNFDYWGQGTLVTVSS VL: EIVLTQSPGTLSLSPGERATLSCRASQSVSRSYLAWYQQKPGQAPRLLIIGASTRATGIPDRFSGSGSGTDFTLTISRLEPEDFAVYYCQQGQVIPPTFGQGTKVEIK | 1
Ab14 (antibody, human IgG1, kappa, L234A L235A, V domains shown, Fully human, IgG1 / kappa; also called anti-FAP antibody Ab14; Ab114) VH: QVQLQQSGVEVKKPGASVTVSCRASGYSFADHFIHWVRQAPGQGFQWMGWINPNRGVTHHAQDFQGRVAMTRDMSTDTVYMELTSLRSDDTAVYYCARDASLTARPYYFYGFDVWGQGTLVTVSS VL: EIVLTQSPSSVSASVGDRVTITCRASQGISSWLAWYQQKPGKAPKLLIYAASSLQSGVPSRFSGSGSGTDFTLTISSLQPEDFATYYCQQANSFPLTFGGGTKVEIKR | 3.6
Ab15 (antibody, human IgG1, kappa, L234A L235A, V domains shown, Fully human, IgG1 / kappa; also called anti-FAP antibody Ab15) VH: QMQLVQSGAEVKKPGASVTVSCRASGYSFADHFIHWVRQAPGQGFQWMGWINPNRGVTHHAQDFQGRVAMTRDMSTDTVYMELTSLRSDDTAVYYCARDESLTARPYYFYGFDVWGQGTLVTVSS VL: EIVLTQSPSSVSASVGDRVTITCRASQGISSWLAWYQQKPGKAPKSLIYAASSLQSGVPSRFSGSGSGTDFTLTISSLQPEDFATYYCQQANSFPPTFGGGTKVEIKR | 6.1

# ---- query binder ----
Briefly, Ratio of KD of 28H1 to KD of test antibody measured for Ab10 (antibody, human IgG1, kappa, L234A L235A, V domains shown, Fully human, IgG1 / kappa; also called anti-FAP antibody Ab10; Ab110) VH: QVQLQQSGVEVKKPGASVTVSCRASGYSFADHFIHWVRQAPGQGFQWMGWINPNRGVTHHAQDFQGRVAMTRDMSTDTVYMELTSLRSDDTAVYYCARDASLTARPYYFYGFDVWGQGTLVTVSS VL: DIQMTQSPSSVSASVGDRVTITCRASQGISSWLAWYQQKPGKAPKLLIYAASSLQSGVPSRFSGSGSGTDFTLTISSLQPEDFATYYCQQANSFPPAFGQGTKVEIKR : 5.3
